Assay target: BTK (Homo sapiens, UniProt Q06187)
Sequence (Q06187 402-655 limits assumed): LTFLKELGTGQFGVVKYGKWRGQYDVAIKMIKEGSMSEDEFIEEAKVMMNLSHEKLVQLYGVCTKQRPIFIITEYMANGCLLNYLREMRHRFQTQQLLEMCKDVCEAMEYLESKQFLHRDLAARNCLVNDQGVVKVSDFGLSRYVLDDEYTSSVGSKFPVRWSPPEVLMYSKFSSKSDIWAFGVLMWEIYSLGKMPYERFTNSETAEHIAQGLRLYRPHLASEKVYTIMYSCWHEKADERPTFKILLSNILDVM
Procedure text: biochemical
Condition notes: read-out: BTK inhibition (%), 0.75 uM BTK, […] probe 3l, 15 min preincubation
Measured property: inhibition at 10 µM (%)
Value expressed in %; do not type the unit.

Known inhibition at 10 µM results, listed for orientation:
> print(dat)
                                        mol  result.value
1  COc1cc2c(cc1O)CC[C@@H]1[C@@H]2CC[C@]2(C)[C@@H](O)CC[C@@H]12          -2.8
2      C[Si](C)(C)N=C(O[Si](C)(C)C)C(F)(F)F          -6.9
3  Cc1cn([C@H]2C[C@H](O)[C@@H](CO)O2)c(=O)[nH]c1=O         -11.7
4  CCC[C@@H]1C[C@@H](C(=O)N[C@@H]([C@H]2O[C@H](SC)[C@H](OP(=O)(O)O)[C@@H](O)[C@H]2O)[C@H](C)Cl)N(C)C1          -5.1
5  CC[C@@H](N)CNc1ccnc(-c2cc(-c3cnn(C)c3)ccc2O)n1           2.8
6      NCCNc1ccc(NCCN)c2c1C(=O)c1ccncc1C2=O          23.2

Given the entry c1ccc2occc2c1 , report its measured inhibition at 10 µM.
6.2

Given the entry O=C(/C=C/c1ccc(O)cc1)OC[C@H]1O[C@@H](Oc2c(-c3ccc(O)cc3)oc3cc(O)cc(O)c3c2=O)[C@H](O)[C@@H](O)[C@@H]1O , report its measured inhibition at 10 µM.
15.3

Given the entry COc1nc(OCc2cccc(-c3ccccc3)c2C)ccc1CNCCNC(C)=O , report its measured inhibition at 10 µM.
-51.7

* * *

Assay target: UniProt Q06187
Procedure text: biochemical
Condition notes: read-out: BTK inhibition (%), 0.75 uM BTK, […] probe 3l, 15 min preincubation
Listing: inhibition at 10 µM of selected compounds
Value expressed in %; do not type the unit.

Known inhibition at 10 µM results, listed for orientation:
> print(dat)
                                   compound    assay.target    measured.property  result.value
1  O=c1[nH]c2ccccc2n1C1CCN(Cc2ccc(-c3[nH]c4cc5ncnc5cc4nc3-c3ccccc3)cc2)CC1 [PCM-0215535]  UniProt Q06187  inhibition at 10 µM          18.6
2  O=C1O[C@H]([C@H](O)CO)C(O)=C1O [PCM-0215957]  UniProt Q06187  inhibition at 10 µM           1.5
3  C=C1C(=O)[C@]23[C@H](O)[C@H]1CC[C@H]2[C@@]12CO[C@]3(O)[C@@H](O)[C@@H]1C(C)(C)CC[C@@H]2O [PCM-0214681]  UniProt Q06187  inhibition at 10 µM          -1.6

Now look at this one.
Given the entry COC(=O)c1ccc(O)cc1 [PCM-0215083] , report its measured inhibition at 10 µM.
-5.4

* * *

Listing: inhibition at 10 µM of selected molecules
Assay target: BTK (Homo sapiens)
Procedure text: biochemical
Condition notes: read-out: BTK inhibition (%), 0.75 uM BTK, […] probe 3l, 15 min preincubation
Value expressed in %; do not type the unit.

Known inhibition at 10 µM results, listed for orientation:
Molecule	Result value
CC/C(=C(/CC)c1ccc(O)cc1)c1ccc(O)cc1	-26.5
CN(C)c1ccc2c(c1)Sc1cc(N(C)C)ccc1N2	72.6
C=CCc1ccc(O)c(-c2ccc(O)c(CC=C)c2)c1	37.9
CNC[C@H](O)[C@@H](O)[C@H](O)[C@H](O)CO	-10.1
Cc1nc(Nc2n[nH]c3c2CN(C(=O)N[C@H](CN(C)C)c2ccccc2)C3(C)C)c2sccc2n1	72.4

API: value(readout=inhibition at 10 µM, system=BTK (Homo sapiens)) for record CC(=O)O[C@]1(C(C)=O)CC[C@H]2[C@@H]3C[C@H](C)C4=CC(=O)CC[C@]4(C)[C@H]3CC[C@@]21C
-18.7

API: value(readout=inhibition at 10 µM, system=BTK (Homo sapiens)) for record O=C1N=C(O)CN1/N=C/c1ccc(-c2ccc([N+](=O)[O-])cc2)o1
28

* * *

Assay target: BTK (Homo sapiens)
Procedure text: biochemical
Condition notes: read-out: BTK inhibition (%), 0.75 uM BTK, […] probe 3l, 15 min preincubation
Listing: inhibition at 10 µM of selected compounds
Value expressed in %; do not type the unit.

Compound	inhibition at 10 µM / %
Cc1[nH]c2ccccc2c1CCNC(=O)c1cccs1	-6.9
OC1OC[C@@H](O)[C@@H](O)[C@H]1O (some centres unmarked)	4.6
C=CC(=O)Nc1cc(Nc2nccc(-c3cn(C)c4ccccc34)n2)c(OC)cc1N(C)CCN(C)C	80.7

Given the entry CN1CCN(c2c(F)cc3c(=O)c(C(=O)O)cn4c3c2OCN4C)CC1 , report its measured inhibition at 10 µM.
0

Given the entry Cc1cccc(-c2[nH]c(C(C)(C)C)nc2-c2ccc3nccnc3c2)n1 , report its measured inhibition at 10 µM.
25.5

Given the entry NC(=O)c1cccnc1 , report its measured inhibition at 10 µM.
12.5

Given the entry O=C(/C=C/c1ccc(O)cc1)C1=C(O)[C@](O)([C@@H]2O[C@H](CO)[C@@H](O)[C@H](O)[C@H]2O)C(O)=C(/C=C2/C(=O)C(C(=O)/C=C/c3ccc(O)cc3)=C(O)[C@@](O)([C@@H]3O[C@H](CO)[C@@H](O)[C@H](O)[C@H]3O)C2=O)C1=O , report its measured inhibition at 10 µM.
-1.5

Given the entry CCOC(=O)c1c(C)n(C)c2ccc(O)cc12 , report its measured inhibition at 10 µM.
-14

Given the entry CCN[C@H]1C[C@H](C)S(=O)(=O)c2sc(S(N)(=O)=O)cc21 , report its measured inhibition at 10 µM.
10.2

Given the entry O=C(O[C@@H]1O[C@@H]2COC(=O)c3cc(O)c(O)c(O)c3-c3c(cc(O)c(O)c3O)C(=O)O[C@H]([C@H]1O)[C@@H]2O)c1cc(O)c(O)c(O)c1 , report its measured inhibition at 10 µM.
37.1

Given the entry C[C@@H]1O[C@@H](O[C@H]2[C@H](O[C@H]3CC[C@@]4(C)[C@@H](CC[C@]5(C)[C@@H]4CC=C4[C@@H]6CC(C)(C)CC[C@]6(C(=O)O[C@@H]6O[C@H](CO[C@@H]7O[C@H](CO)[C@@H](O)[C@H](O)[C@H]7O)[C@@H](O)[C@H](O)[C@H]6O)CC[C@]45C)[C@]3(C)CO)OC[C@H](O)[C@@H]2O)[C@H](O)[C@H](O[C@@H]2O[C@H](CO)[C@@H](O)[C@H](O)[C@H]2O)[C@H]1O , report its measured inhibition at 10 µM.
-21.6

Given the entry COc1ccccc1S(=O)(=O)Nc1ccc2c(c1)CN(C)C(=O)N2 , report its measured inhibition at 10 µM.
6.2

Given the entry O=c1cc(-c2ccc(O)cc2)oc2cccc(O)c12 , report its measured inhibition at 10 µM.
32.4

Given the entry O=C1C[C@@H]2[C@@H](CO)[C@H](O)C[C@@H]2O1 , report its measured inhibition at 10 µM.
-8.5

* * *

Assay target: BTK (Homo sapiens, UniProt Q06187)
Procedure text: biochemical
Condition notes: read-out: BTK inhibition (%), 0.75 uM BTK, […] probe 3l, 15 min preincubation
Measured property: inhibition at 10 µM (%)
Value expressed in %; do not type the unit.

Known inhibition at 10 µM results, listed for orientation:
> print(dat)
                                   molecule  result.value
1  C[C@@H](C(=O)Nc1ccc(Cl)cc1)C1CCC(c2ccnc3ccc(F)cc23)CC1 (stereo partly drawn)            27
2    O=C1C(=O)N(Cc2ccc(Cl)c(Cl)c2)c2ccccc21           9.3

Given the entry CN1CCN(C(=O)/C=C/c2ccc([N+](=O)[O-])o2)CC1 , report its measured inhibition at 10 µM.
4.6

Given the entry COc1ncc(-c2cc(-c3ncc(CN4C[C@@H](C)O[C@@H](C)C4)o3)c3cn[nH]c3c2)cc1NS(C)(=O)=O , report its measured inhibition at 10 µM.
6.2

Given the entry Cc1cccc(Nc2cc(Cl)nc(SCC(=O)O)n2)c1C , report its measured inhibition at 10 µM.
7.7

Given the entry CCc1cccc2c3c([nH]c12)C(CC)(CC(=O)O)OCC3 (stereo not drawn) , report its measured inhibition at 10 µM.
1.4

Given the entry O[C@@H]1CO[C@H]2[C@@H]1OC[C@@H]2O , report its measured inhibition at 10 µM.
-3.9

Given the entry C[C@@H]1Cc2c([nH]c3ccccc23)[C@@H](c2c(F)cc(/C=C/C(=O)O)cc2F)N1CC(C)(C)F , report its measured inhibition at 10 µM.
30.9

Given the entry CCOC(=O)[C@H](CCc1ccccc1)N[C@H]1CCc2ccccc2N(CC(=O)O)C1=O , report its measured inhibition at 10 µM.
-24.9

Given the entry CCOc1ccccc1-n1c(C(C)N2CCN(C(=O)COc3ccc(Cl)cc3)CC2)nc2ccccc2c1=O (stereo not drawn) , report its measured inhibition at 10 µM.
15.4

Given the entry CC(C)(Sc1cc(C(C)(C)C)c(O)c(C(C)(C)C)c1)Sc1cc(C(C)(C)C)c(O)c(C(C)(C)C)c1 , report its measured inhibition at 10 µM.
0.8

Given the entry N#Cc1c(N)nc(NC2CC2)nc1N , report its measured inhibition at 10 µM.
14

Given the entry CS(=O)(=O)c1ccc(C(=O)Nc2ccc(Cl)c(-c3ccccn3)c2)c(Cl)c1 , report its measured inhibition at 10 µM.
6.2

Given the entry COc1ccc(-c2cc(=O)c3c(OC)c(OC)c(OC)c(OC)c3o2)cc1 , report its measured inhibition at 10 µM.
-26.9

Given the entry CC(C)(C)C1CCC(CC2=C(O)c3ccccc3C(=O)C2=O)CC1 (stereo not drawn) , report its measured inhibition at 10 µM.
3.1

Given the entry CCCS(=O)(=O)Nc1ccc(F)c(C(=O)c2c[nH]c3ncc(-c4ccc(Cl)cc4)cc23)c1F , report its measured inhibition at 10 µM.
24.8

Given the entry Cc1ccc(S(=O)(=O)Nc2cc(-c3ccc(C#N)s3)ccc2C)cc1 , report its measured inhibition at 10 µM.
-6.2

Given the entry COc1cc2c(c(O)c1OC)-c1c(cc(OC)c(OC)c1OC)C[C@@H](C)[C@@H](C)C2 , report its measured inhibition at 10 µM.
23.9
